Test system: BT-549 breast
Experiment: NCI tumour cell line growth inhibition, 48 h; in the data active = GI50 below about 0.43 µM; inactive = the rest
Hi! Could you answer with just one of these? label 1 = active, label 0 = inactive

Please review the following examples before continuing.
molecule	assay_target	label
COc1ccc(/C=C/C(=O)c2ccc(B(O)O)cc2)cc1O	BT-549 breast	label 0
O=C1/C(=C\c2ccc(Cl)cc2)CN(C(=O)c2ccccc2)C/C1=C\c1ccc(Cl)cc1	BT-549 breast	label 0
COc1ncnn2ccc(-c3cnc4nc(C)n(Cc5nnc(C(C)F)o5)c4c3)c12 (stereo not given)	BT-549 breast	label 1

QUERY: Look up the recorded call for Cc1cn2c(/C=N/NC3=NCCN3)c(-c3ccc(Cl)c([N+](=O)[O-])c3)nc2s1 in this test.
RESULT: label 0

QUERY: Look up the recorded call for O=C1NC(=N[C@@H]2C[C@H]2c2ccccc2)S/C1=C\c1ccc2ncccc2c1 in this test.
RESULT: label 0
